Tested on: A498
protocol: Cytotoxicity against human A498 cells after 2 days by sulforhodamine B assay
Assay type: functional
testParameters: A498, 48 h
measuredMetric: LC50 (µM)

>  <lineNotation>
CCC(=C(c1ccc(OCCN(C)C)cc1)c1ccc(OC(=O)CCCCC(=O)C2=C(C)/C(=C/c3[nH]c(-c4ccc[nH]4)cc3OC)N=C2C)cc1)c1ccccc1

>  <measuredMetric>
LC50

>  <unitOfMeasure>
µM

>  <resultModifier>
=

>  <measuredNumber>
53.7

$$$$
>  <lineNotation>
CC/C(=C(/c1ccc(OCCN(C)C)cc1)c1ccc(OC(=O)CCC(=O)C2=C(C)/C(=C/c3[nH]c(-c4ccc[nH]4)cc3OC)N=C2C)cc1)c1ccccc1

>  <measuredMetric>
LC50

>  <unitOfMeasure>
µM

>  <resultModifier>
=

>  <measuredNumber>
44.2

$$$$
>  <lineNotation>
CC/C(=C(/c1ccc(OCCN(C)C)cc1)c1ccc(OC(=O)CCCCCCCCC(=O)C2=C(C)/C(=C/c3[nH]c(-c4ccc[nH]4)cc3OC)N=C2C)cc1)c1ccccc1

>  <measuredMetric>
LC50

>  <unitOfMeasure>
µM

>  <resultModifier>
>

>  <measuredNumber>
100

$$$$
>  <lineNotation>
COc1cc(-c2ccc[nH]2)[nH]c1/C=C1\N=C(C)C(C(=O)CCC(=O)Oc2ccc3c(c2)CC[C@@H]2[C@@H]3CC[C@]3(C)C(=O)CC[C@@H]23)=C1C

>  <measuredMetric>
LC50

>  <unitOfMeasure>
µM

>  <resultModifier>
>

>  <measuredNumber>
100

$$$$
